# Assay overview: qHTS of pediatric cancer cell lines to identify multiple opportunities for drug repurposing: Primary screen for A673 cells (AID 1347092); further: nearly all actives have a fitted effect of over 45% in size
# Test context: A673 Ewing sarcoma viability, CellTiter-Glo ATP luminescence, 48 h; series mostly up to 46 µM
Inconclusive results are not listed. Activity calls are given as the source filed them. The call rests on the fitted dose curve; in most records, active means well fitted cell-killing curve with a large enough effect; inconclusive means small, poorly fitted or top-dose-only effect; inactive means no such curve, though single readings can be large or run the other way.
Assign a class; possible classes are true (1) = active, false (0) = inactive

Use the examples below as a reference point.
> print(dat)
                                   molecule        cat
1  CCCS(=O)(=O)Nc1ccc(F)c(C(=O)c2c[nH]c3ncc(-c4ccc(Cl)cc4)cc23)c1F   true (1)
2     Nc1ccc(S(=O)(=O)Nc2ccnn2-c2ccccc2)cc1  false (0)
3    O=C1CCc2cc(OCCCCc3nnnn3C3CCCCC3)ccc2N1  false (0)
4  O=C(O)[C@@H](c1ccc(OCc2ccc3ccccc3n2)cc1)C1CCCC1  false (0)
5  Cc1ccc(NC(=O)c2cccc(C(C)(C)C#N)c2)cc1Nc1ccc2ncn(C)c(=O)c2c1   true (1)

Q: Each molecule tested received a call. Report the one for COc1ccc(-c2ccc3c(N4CCOC[C@H]4C)nc(N4CCOC[C@H]4C)nc3n2)cc1CO .
Ans: true (1)

Q: Answer briefly: the call reported for COc1cc2c(cc1OC)CN(CCc1ccc(NC(=O)c3cccc4c(=O)c5cccc(OC)c5[nH]c34)cc1)CC2 in this assay.
Ans: true (1)

Q: Which outcome was assigned to O=C(O)CCc1ccc(NCc2cccc(Oc3ccccc3)c2)cc1 in this test?
Ans: false (0)

Q: Outcome? COc1ccc(CC2=NN3C([C@@H](CCc4ccccc4)[C@@H](C)O)=NC(C)C3C(=O)N2)cc1OC (some centres undefined)
Ans: false (0)

* * *

# Assay overview: Quantitative High-Throughput drug screen in 47 multiple myeloma cell lines against the NCATS MIPE library collection: U266_ATCC cell viability assay (AID 1919864); further: nearly all actives have a fitted effect of over 35% in size
# Test context: U266 myeloma viability, CellTiter-Glo ATP luminescence, 48 h; series mostly up to 45.8 µM
Results filed as inconclusive are left out. Activity calls are given as the source filed them. The call rests on the fitted dose curve; in most records, active means well fitted cell-killing curve with a large enough effect; inconclusive means small, poorly fitted or top-dose-only effect, or effect the other way; inactive means no such curve, though single readings can be large or run the other way.
Parameter call: string, one of active, inactive

Q: # fetch the recorded call for C[C@H](NC(=O)Cc1cc(F)cc(F)c1)C(=O)N[C@@H]1C(=O)N(C)c2ccccc2-c2ccccc21 here
Ans: active

Q: Which outcome did this test record for the compound Cc1[nH]c(=O)c(C#N)cc1-c1ccc2nccn2c1 ?
Ans: inactive

Q: Would you mind telling me which call this test gave CC(C[N+](C)(C)C)OC(N)=O (configuration not stated) ?
Ans: inactive

* * *

# Assay overview: qHTS of Trypanosoma Brucei Inhibitors: LOPAC Validation (AID 624147); further: 0% is about no effect
# Test context: purified enzyme assay, luminescence, 45 min; series mostly up to 57.5 µM
Results filed as inconclusive are left out. Active and inactive are the calls of the source. The call rests on the fitted dose curve; in most records, active means well fitted inhibition curve with a large enough effect; inconclusive means small, poorly fitted or top-dose-only effect; inactive means flat fitted curve, though single readings scatter.
Quantity measured: outcome

Some compounds with recorded outcome:
> print(dat)
                                   compound  quantity.measured    result
1  CC(C)(Sc1ccc(CCN(CCCCC2CCCCC2)C(=O)NC2CCCCC2)cc1)C(=O)O            outcome  inactive
2          Cc1oncc1C(=O)Nc1ccc(C(F)(F)F)cc1            outcome  inactive
3  O=C1CCC(N2C(=O)c3ccccc3C2=O)C(=O)N1 (centres undefined)            outcome  inactive
4  CCOC(=O)N1CCC(=C2c3ccc(Cl)cc3CCc3cccnc32)CC1            outcome  inactive
5                               Cc1cn[nH]c1            outcome  inactive

Q: Indicate the recorded outcome value for this compound: Oc1ccc(C2CNCCc3c2cc(O)c(O)c3Cl)cc1 (centres undefined)
Ans: inactive

Q: Give the reported outcome for this compound. O=NN(CCCl)C(=O)NCCCl
Ans: inactive
